Target: interaction between GST-MAGEA11 MHD and FAM-PCF11_4 peptide (MAGE-A11:PCF11) (Homo sapiens (Human), UniProt P43364)
Sequence (P43364 218-429): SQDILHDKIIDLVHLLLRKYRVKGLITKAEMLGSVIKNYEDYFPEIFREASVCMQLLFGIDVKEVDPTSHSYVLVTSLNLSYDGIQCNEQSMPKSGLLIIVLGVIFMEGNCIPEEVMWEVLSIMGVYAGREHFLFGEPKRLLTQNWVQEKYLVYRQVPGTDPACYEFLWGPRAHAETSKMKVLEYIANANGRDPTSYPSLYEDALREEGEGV
Experiment: TR-FRET dose response competition assay for disruption of MAGE-A11:PCF11 binding
Details: Dose response TR-FRET screening of nine scaffold groups against MAGE-A11:PCF11; read-out: consensus IC50
pIC50: −log10 of the molar value.
OUTCOME_MEASURE: pIC50

>>> experimental_result("COCCn1c(-c2ccc(F)cc2)nc2c1c(=O)[nH]c(=O)n2CC(C)C")
4.16
>>> experimental_result("Cn1c2ccccc2c2cc(C(=O)NCC3CCC4(CCN(Cc5ccccn5)CC4)O3)ccc21 (stereo not drawn)")
4.16
>>> experimental_result("C=C(C)CSc1nc2cc(-c3ccccc3)sc2c(=O)n1CCN1CCOCC1")
6.07
>>> experimental_result("COc1cccc(CNCCCNc2ccnc3cc(CC(C)C)ccc23)c1O")
4.16
>>> experimental_result("CCCCn1c(=O)[nH]c(=O)c2c1nc(-c1ccc(F)cc1)n2CCOC")
4.16
>>> experimental_result("C=CCNC(=O)NC(=O)Cn1cnc2cc(-c3ccccc3)sc2c1=O")
4.16
>>> experimental_result("O=C1C(Cl)=C(N2CCOCC2)C(=O)c2ccccc21")
4.16
>>> experimental_result("Nc1nc(Nc2ccc(O)cc2)nc2ccccc12")
4.16
>>> experimental_result("Fc1ccc(Cc2ccc3c(NCCCNCc4cccc5c4OCO5)ccnc3c2)cc1")
4.37

---

Form field: TR-FRET signal (one value per entry).
Target: UniProt:P43364
Experiment: TR-FRET single point screening at 15 μM
Format: binding
Design: unit not given here
Details: single point TR-FRET screening at 15 μM against MAGE-A11:PCF11
OUTCOME_MEASURE: TR-FRET signal

>>> experimental_result("Clc1ccc2c(NCCCCN(Cc3ccccc3)Cc3ccc(Br)s3)ccnc2c1 [SJ000312688]")
22.04
>>> experimental_result("Cc1cc(N2CCN(CC(O)COCC(C)C)CC2)c2ccccc2n1 (stereo not shown) [SJ000227654]")
"−3.251"
>>> experimental_result("CCCN(CCCNc1c2ccc(Cl)cc2nc2ccc(OC)cc12)Cc1ccccc1OC [SJ000520950]")
"−271.1"
>>> experimental_result("COc1ccc2nc3cc(Cl)ccc3c(NCCCNCc3ccc4ccccc4c3)c2c1 [SJ000523038]")
"−109.5"
>>> experimental_result("Oc1ccc(Br)cc1CN1CCC(Nc2ccnc3cc(Cl)ccc23)CC1 [SJ000311181]")
"−1.209"
>>> experimental_result("CCOc1ccc(C(=O)c2cnc3ccc(C)cc3c2N2CCN(CC)CC2)cc1 [SJ000247339]")
"−10.81"
>>> experimental_result("CCCN(CCCNc1c2ccc(Cl)cc2nc2ccc(OC)cc12)Cc1scnc1C [SJ000522976]")
"−127"
>>> experimental_result("COc1ccc(CN(CCCCNc2ccnc3cc(Cl)ccc23)Cc2ccccc2)cc1F [SJ000520438]")
13.15
>>> experimental_result("Cc1ccc(S(=O)(=O)c2cnc3ccccc3c2N2CCN(c3ccc(C)cc3C)CC2)cc1 [SJ000117080]")
3.172
>>> experimental_result("COc1ccc(F)cc1CN(CCCCNc1ccnc2cc(Cl)ccc12)Cc1ccccc1 [SJ000357496]")
20.78
>>> experimental_result("O=C(CN1CCN(C(c2ccccc2)c2ccccc2)CC1)Nc1c2c(nc3ccccc13)CCC2 [SJ000111684]")
11.85
>>> experimental_result("CCOC(=O)c1cnc2ccc(C(=O)O)cc2c1N1CCN(CCO)CC1 [SJ000280902]")
"−0.5958"
>>> experimental_result("COc1ccc2ncc(S(=O)(=O)c3ccccc3)c(N3CCN(Cc4ccccc4)CC3)c2c1 [SJ000247248]")
"−71.16"
>>> experimental_result("COc1ccc2nc3cc(Cl)ccc3c(NCCCNCc3ccc4[nH]ccc4c3)c2c1 [SJ000520914]")
"−184.2"
>>> experimental_result("CCc1ccc2ncc(S(=O)(=O)c3ccccc3)c(N3CCN(C)CC3)c2c1 [SJ000083946]")
"−6.249"
>>> experimental_result("CCCN(CCCNc1c2ccc(Cl)cc2nc2ccc(OC)cc12)Cc1c[nH]c2ccccc12 [SJ000522978]")
"−166.2"
>>> experimental_result("COc1ccc2nc3cc(Cl)ccc3c(NCCCNCC3CCCCC3)c2c1 [SJ000361090]")
"−411.2"
>>> experimental_result("CCOC(=O)c1cnc2ccc(Br)cc2c1NCCN1CCOCC1 [SJ000031339]")
"−47.24"
>>> experimental_result("Cc1ccc(S(=O)(=O)c2cnc3ccccc3c2N2CCN(C)CC2)cc1 [SJ000247268]")
"−13.59"
>>> experimental_result("CCOc1ccc2ncc(S(=O)(=O)c3ccc(Cl)cc3)c(N3CCN(CC)CC3)c2c1 [SJ000083969]")
"−4.989"
>>> experimental_result("CCN1CCN(c2c(S(=O)(=O)c3ccccc3)cnc3ccc(C)cc23)CC1 [SJ000083956]")
"−3.448"
>>> experimental_result("Clc1ccc2c(NCCCCN(Cc3ccccc3)Cc3csc4ccccc34)ccnc2c1 [SJ000520446]")
33.98
>>> experimental_result("CCCCN(CCCCNc1ccnc2cc(Cl)ccc12)Cc1ccccc1 [SJ000357538]")
27.64
>>> experimental_result("COC(=O)c1ccc(CNCCCNc2c3ccc(Cl)cc3nc3ccc(OC)cc23)cc1 [SJ000522957]")
"−133"
>>> experimental_result("COc1ccc2ncc(S(=O)(=O)c3ccccc3)c(N3CCN(C)CC3)c2c1 [SJ000083947]")
"−2.094"
>>> experimental_result("CCN1CCN(c2c(S(=O)(=O)c3ccc(Cl)cc3)cnc3ccccc23)CC1 [SJ000247367]")
"−2.261"
>>> experimental_result("CCCN(CCCNc1c2ccc(Cl)cc2nc2ccc(OC)cc12)Cc1c(F)cccc1OC [SJ000522733]")
"−187.1"
>>> experimental_result("CCN(CC)CCCC(C)Nc1c2ccc(Cl)cc2nc2ccc(OC)cc12 (stereo not shown) [SJ000285202]")
"−265.7"

FYI, the data here is from patent US20240246941A1.
